# target.entity: Avi-KRAS WT (2-169) GTP/RAF1 RBD-3xFLAG (51-131) (Homo sapiens)
# Construct: Avi-KRAS WT (2-169)
# Sequence (P01116 2-169 isoform P01116-2): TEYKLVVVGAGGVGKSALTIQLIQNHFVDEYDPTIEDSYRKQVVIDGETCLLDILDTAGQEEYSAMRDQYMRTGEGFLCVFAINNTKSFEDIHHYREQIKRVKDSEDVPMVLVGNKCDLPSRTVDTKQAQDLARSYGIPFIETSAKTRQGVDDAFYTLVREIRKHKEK
# protocol.description: Raf1-KRAS WT-GTP disruption HTRF assay (Biological Example 3)
# Format: binding
# stated.conditions: KRAS WT, GTP-loaded
# Description: Biological Example 3: Disrupting RAS-Effector Binding HTRF Assay A protein:protein interaction (PPI) Homogeneous Time Resolved Fluorescence (HTRF) assay was used to determine the effectiveness of compounds in disrupting KRAS protein and effector (RAF1) binding. […] Plates were analyzed on an Envision plate reader using the following setting: Excitation 320 nm, Bandwidth 75 nm; Emission 615 nm, Bandwidth 85 nm; Gain 100%; Flashes 100; Lag 60 μs. […] Data was plotted and analyzed using Prism 8. […]
pIC50: −log10 of the molar value.
experimental.readout: pIC50

Example compounds with recorded pIC50:
compound	target.entity	pIC50
CCN(c1nc(OC[C@@]23CCCN2C[C@H](F)C3)nc2c(F)c(-c3ccc(F)c4sc(N)c(C#N)c34)c(C(F)(F)F)cc12)[C@H]1CCN(C(=O)OC)C1 [Compound 394]	Avi-KRAS WT (2-169) GTP/RAF1 RBD-3xFLAG (51-131) (Homo sapiens)	6.00 to 7.00
CCN(c1nc(OC[C@@]23CCCN2C[C@H](F)C3)nc2c(F)c(-c3ccc(F)c4sc(N)c(C#N)c34)c(C(F)(F)F)cc12)[C@H]1CCN(C(=O)N2CC3C(C2)C3(C)C)C1 (stereo partly drawn)	Avi-KRAS WT (2-169) GTP/RAF1 RBD-3xFLAG (51-131) (Homo sapiens)	5.00 to 6.00

Please give the measured pIC50 for this compound: CCN(c1nc(OC[C@@]23CCCN2C[C@H](F)C3)nc2c(F)c(-c3ccc(F)c4sc(N)c(C#N)c34)c(C(F)(F)F)cc12)[C@H]1CC(=O)N(CC(F)F)C1 (atropisomer, axis not shown) 6.00 to 7.00
